molecular target: AMPA receptor; assay: AMPA receptor binding affinity (in vitro); settings: Table 1
pIC50: −log10 of the molar value.
measurementType: pIC50

Please review the entries below; each comes with its answer.
I am curious: what pIC50 value has been reported for CN1CCc2c(-c3ccc(C(=O)N(C)C)cc3)cc3c(c2C1)NC(=O)C3=NO ?
6.85

// pIC50 lookup, key: CCN(CC)S(=O)(=O)c1ccc(-c2cc3c(c4c2CCN(C)C4)NC(=O)C3=NO)cc1
7.74

If you can, please state the reported pIC50 value of CN(C)CCN(C)S(=O)(=O)c1ccc(-c2cc3c(c4c2CCN(C)C4)NC(=O)C3=NO)cc1 .
6.72

P = CCOC(=O)CNS(=O)(=O)c1ccc(-c2cc3c(c4c2CCN(C)C4)NC(=O)C3=NO)cc1
Q = CN1CCc2c(-c3ccc(S(=O)(=O)N4CCN(Cc5ccc6c(c5)OCO6)CC4)cc3)cc3c(c2C1)NC(=O)C3=NO
Compare pIC50: is it lower for P or for Q ? Write down the label attached to your selection.
Q
